Data provenance: patent US20230303542A1

TEST_SUMMARY: Dynamic solubility of Form II in mixed solvents, dissolution observed visually
Type: physicochemical
RECORDED_CONDITIONS: volume ratio 1/2, organic solvent or mixture, thermodynamic from solid; MeOH/EA, volume ratio ½; RT; read-out: Solubility
ASSAY_METRIC: solubility at 30 min

Value of measured solubility at 30 min for the entry CC(=O)N1CCC(COc2cc(F)c3c(=O)[nH]c(CSC4CCOCC4)nc3c2)CC1 [Form II] : < 10000 µg/mL
